- Assay Details: Metabolic stability in mouse liver microsomes assessed as half life at 3 uM measured up to 30 mins in presence of NADPH by […] analysis
- Type: ADME, Microsome
// values below are reported half-life at 3 µM
Result Type: half-life at 3 µM (min)

>>> assay_result("Cc1ccc(C(=O)Nc2ccc(CN3Cc4ccc(O)cc4C3)c(Cl)c2)cc1C#Cc1cnc2cccnn12")
26.4
>>> assay_result("Cc1cn(-c2cc(NC(=O)c3ccc(C)c(Nc4nccc(-c5cccnc5)n4)c3)cc(C(F)(F)F)c2)cn1")
7.89
>>> assay_result("Cc1ccc(C(=O)Nc2ccc(CN3CCN(C)CC3)c(C(F)(F)F)c2)cc1C#Cc1cnc2cccnn12")
31.9
>>> assay_result("Cc1ccc(C(=O)Nc2ccc(CN3Cc4cn[nH]c4C3)c(Cl)c2)cc1C#Cc1cnc2cccnn12")
16.8

====

- Assay Details: Metabolic stability in human liver microsomes assessed as half life at 3 uM measured up to 30 mins in presence of NADPH by […] analysis
- Format: ADME, Microsome
Result Type: half-life at 3 µM

>>> assay_result("Cc1cn(-c2cc(NC(=O)c3ccc(C)c(Nc4nccc(-c5cccnc5)n4)c3)cc(C(F)(F)F)c2)cn1")
"0.132 h"
>>> assay_result("Cc1ccc(C(=O)Nc2ccc(CN3Cc4ccc(O)cc4C3)c(Cl)c2)cc1C#Cc1cnc2cccnn12")
"2.63 h"
>>> assay_result("Cc1ccc(C(=O)Nc2ccc(CN3CCN(C)CC3)c(C(F)(F)F)c2)cc1C#Cc1cnc2cccnn12")
"3.04 h"
>>> assay_result("Cc1ccc(C(=O)Nc2ccc(CN3Cc4cn[nH]c4C3)c(Cl)c2)cc1C#Cc1cnc2cccnn12")
"0.664 h"

Origin of the recorded values: ChEMBL document CHEMBL4602709
